The molecules listed here are annotated with their pIC50.
Biological target: Lck (Homo sapiens, UniProt P06239)
Construct: Kinases are expressed as either kinase domains or full length constructs; made in house
Sequence (P06239 whole entry, species assumed, the tested form may be a part): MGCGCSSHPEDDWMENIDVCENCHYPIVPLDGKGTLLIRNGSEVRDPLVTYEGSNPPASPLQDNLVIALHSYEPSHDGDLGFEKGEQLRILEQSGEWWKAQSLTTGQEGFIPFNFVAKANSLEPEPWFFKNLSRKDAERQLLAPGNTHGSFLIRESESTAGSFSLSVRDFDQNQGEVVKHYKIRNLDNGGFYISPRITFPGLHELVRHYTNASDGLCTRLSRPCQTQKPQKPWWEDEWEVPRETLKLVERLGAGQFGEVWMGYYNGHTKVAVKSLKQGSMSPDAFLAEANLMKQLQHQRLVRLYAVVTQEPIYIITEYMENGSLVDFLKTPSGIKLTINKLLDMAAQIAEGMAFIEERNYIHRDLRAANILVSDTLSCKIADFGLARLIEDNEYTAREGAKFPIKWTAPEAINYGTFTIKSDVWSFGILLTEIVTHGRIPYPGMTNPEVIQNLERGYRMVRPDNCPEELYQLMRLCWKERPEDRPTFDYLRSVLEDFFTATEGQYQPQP
Experiment: Kinase inhibition assay (33P transfer), Lck
Format: biochemical
Settings: read-out: Lck-1
Excerpt: The inhibitor compounds described herein are screened in the following manner. […] Kinases are expressed as either kinase domains or full length constructs fused to glutathione S-transferase (GST) or polyHistidine tagged fusion proteins in either E. colior Baculovirus-High Five expression systems. […]
pIC50: −log10 of the molar value.

Illustrative cases are given below, each with its answer.
{"molecule": "COC(=O)c1cc(OC)c(OC)cc1Nc1ncnc(-n2c(N)nc3ccccc32)n1", "value observed": "< 4.97"}
{"molecule": "c1ccc(CNc2nc3ccccc3n2-c2ncnc(Nc3cccc(Cc4nnn[nH]4)c3)n2)cc1", "value observed": "5.30 to 6.08"}
{"molecule": "O=c1[nH]c2ccccc2n1-c1ncnc(Nc2ccc(Cl)cc2Cl)n1", "value observed": "< 4.92"}
{"molecule": "COc1ccc(Nc2ncnc(Nc3cc(-c4ccccc4)n[nH]3)n2)cc1OC", "value observed": "> 5.99"}
{"molecule": "COc1ccc(Nc2ncnc(N(C)c3cccc(Cl)c3)n2)cc1OC", "value observed": "5.19 to 5.97"}
{"molecule": "COc1cc(Nc2ncnc(-n3c(NCc4ccc5c(c4)OCO5)nc4ccccc43)n2)cc(OC)c1OC", "value observed": "5.07 to 5.18"}

Asked: Specify measured pIC50 for COC(=O)n1c(=O)n(-c2ncnc(Nc3cc(OC)c(OC)c(OC)c3)n2)c2ccccc21 .
Given back: < 5.00

Asked: Look up and state reported pIC50 for COc1cc(Nc2ncnc(-n3c(NC4CCc5ccccc54)nc4ccccc43)n2)cc(OC)c1OC (stereo not drawn)
Given back: 5.16 to 5.33

----------
Consider the following compounds and their measured IC50 readings.
Target: IGFR-1 (Homo sapiens)
Construct: Kinases are expressed as either kinase domains or full length constructs; made in house
Sequence (P08069 31-1367): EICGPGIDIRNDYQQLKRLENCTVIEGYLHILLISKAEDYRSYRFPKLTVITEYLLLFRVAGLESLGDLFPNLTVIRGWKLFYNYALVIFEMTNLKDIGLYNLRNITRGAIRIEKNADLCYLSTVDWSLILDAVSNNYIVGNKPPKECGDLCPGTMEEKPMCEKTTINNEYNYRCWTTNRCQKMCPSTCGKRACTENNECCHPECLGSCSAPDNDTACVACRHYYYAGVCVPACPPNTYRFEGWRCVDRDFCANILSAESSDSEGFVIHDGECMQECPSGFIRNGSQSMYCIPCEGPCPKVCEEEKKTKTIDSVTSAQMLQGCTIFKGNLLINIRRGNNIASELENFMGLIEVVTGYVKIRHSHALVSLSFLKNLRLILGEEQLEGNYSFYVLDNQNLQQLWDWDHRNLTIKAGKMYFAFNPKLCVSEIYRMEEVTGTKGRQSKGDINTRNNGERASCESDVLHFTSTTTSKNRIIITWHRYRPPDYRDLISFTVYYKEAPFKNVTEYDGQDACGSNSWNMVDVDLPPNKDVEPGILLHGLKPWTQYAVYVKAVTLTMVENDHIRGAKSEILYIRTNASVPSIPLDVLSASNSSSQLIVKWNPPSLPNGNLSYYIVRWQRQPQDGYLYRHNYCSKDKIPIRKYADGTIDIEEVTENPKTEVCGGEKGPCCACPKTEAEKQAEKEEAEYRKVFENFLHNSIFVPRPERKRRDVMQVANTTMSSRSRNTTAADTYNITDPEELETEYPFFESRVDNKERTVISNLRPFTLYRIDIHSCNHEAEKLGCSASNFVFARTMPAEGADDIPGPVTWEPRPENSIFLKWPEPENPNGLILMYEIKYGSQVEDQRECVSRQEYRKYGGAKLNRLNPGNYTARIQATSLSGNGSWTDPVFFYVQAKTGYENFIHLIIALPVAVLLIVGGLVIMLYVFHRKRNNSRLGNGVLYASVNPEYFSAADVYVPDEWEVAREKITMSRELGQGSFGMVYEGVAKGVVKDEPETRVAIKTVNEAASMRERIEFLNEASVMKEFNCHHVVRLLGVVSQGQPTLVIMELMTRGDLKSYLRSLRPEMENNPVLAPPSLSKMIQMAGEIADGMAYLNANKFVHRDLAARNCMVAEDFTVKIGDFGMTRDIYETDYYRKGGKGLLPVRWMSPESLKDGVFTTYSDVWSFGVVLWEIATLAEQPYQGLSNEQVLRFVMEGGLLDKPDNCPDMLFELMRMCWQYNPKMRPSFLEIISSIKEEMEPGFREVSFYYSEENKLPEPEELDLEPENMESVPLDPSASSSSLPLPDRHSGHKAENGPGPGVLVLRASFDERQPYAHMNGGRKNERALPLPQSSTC
Assay: Kinase inhibition assay (33P transfer), IGFR-1
Type: biochemical
Conditions: Table 2, class symbols A-E

The cases that follow already have their IC50 on record.
{"compound": "CCN(CC)CCN(C)c1ncnc(Nc2ccc(OC)c(OC)c2)n1 [Compound 870]", "IC50": "> 12.5 µM"}
{"compound": "COc1cc(Nc2ncnc(-c3cccnc3NC3CCN(Cc4ccccc4)CC3)n2)cc(OC)c1OC [Compound 847]", "IC50": "> 8.53 µM"}

Asked: Assign IC50 to the following record: COC(=O)c1ccc(-c2cc(Nc3ncnc(NCc4ccco4)n3)[nH]n2)cc1 [Compound 805]
Given back: 6.13 to 8.94 µM

Asked: Retrieve IC50 measured for COc1ccc(CNc2nc3ccccc3n2-c2ncnc(Nc3cccc(C(=O)O)c3)n2)cc1 [Compound 1070] and print it.
Given back: > 9.63 µM

Asked: State its IC50: COc1ccc(Nc2ncnc(N(C)C3CCN(C)CC3)n2)cc1OC [Compound 861]
Given back: > 12.6 µM

Asked: Supply reported IC50 belonging to this compound: COc1ccc2[nH]cc(CCNc3ncnc(Nc4ccc(OC)c(OC)c4)n3)c2c1 [Compound 855]
Given back: > 10.7 µM

Asked: Assign IC50 to the following record: COc1ccc(Nc2ncnc(N(C)c3cccc(C)c3)n2)cc1OC [Compound 800]
Given back: 9.96 to 12.8 µM

Asked: Tell me measured IC50 for O=C(O)Cc1cccc(Nc2ncnc(-c3cccnc3NCc3ccc(F)cc3)n2)c1 [Compound 1100] please.
Given back: > 10.5 µM

Asked: Please report the measured IC50 for COc1cc(Nc2ncnc(N3CCCc4ccc(Cl)cc43)n2)cc(OC)c1OC [Compound 645]
Given back: > 10.5 µM

Asked: Indicate the recorded IC50 value for this compound: COC(=O)c1ccc(-c2cc(Nc3ncnc(NCc4ccccc4F)n3)[nH]n2)cc1 [Compound 814]
Given back: > 10.7 µM

Asked: Write down IC50 measured for item COc1cc(Nc2ncnc(Nc3cc(-c4ccco4)[nH]n3)n2)cc(C(F)(F)F)c1 [Compound 821]
Given back: 0.958 to 5.75 µM

Asked: Identify measured IC50 associated with COc1cc(Nc2ncnc(-c3cccnc3NC3CCc4ccccc43)n2)cc(OC)c1OC (stereo not drawn) [Compound 846]
Given back: > 9.56 µM

----------
# pIC50 per entry
Target: Zap-70 (Homo sapiens)
Construct: Kinases are expressed as either kinase domains or full length constructs; made in house
Sequence (P43403 whole entry, species assumed, the tested form may be a part): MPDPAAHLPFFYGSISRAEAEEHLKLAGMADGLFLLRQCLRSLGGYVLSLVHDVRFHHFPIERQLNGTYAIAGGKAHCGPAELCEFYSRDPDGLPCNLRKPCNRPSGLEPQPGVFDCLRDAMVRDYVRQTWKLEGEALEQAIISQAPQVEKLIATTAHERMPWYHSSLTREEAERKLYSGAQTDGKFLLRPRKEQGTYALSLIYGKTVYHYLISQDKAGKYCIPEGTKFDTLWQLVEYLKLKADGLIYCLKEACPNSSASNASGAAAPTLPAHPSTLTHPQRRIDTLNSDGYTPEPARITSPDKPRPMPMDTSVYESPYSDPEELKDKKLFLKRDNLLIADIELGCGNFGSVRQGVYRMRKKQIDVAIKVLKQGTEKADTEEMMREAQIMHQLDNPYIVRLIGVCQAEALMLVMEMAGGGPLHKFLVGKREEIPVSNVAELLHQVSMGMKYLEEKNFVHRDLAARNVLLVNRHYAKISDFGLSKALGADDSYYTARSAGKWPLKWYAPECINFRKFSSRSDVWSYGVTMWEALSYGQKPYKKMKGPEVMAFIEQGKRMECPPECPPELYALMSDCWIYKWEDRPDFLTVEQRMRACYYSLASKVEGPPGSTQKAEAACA
Assay: Kinase inhibition assay (33P transfer), Zap-70
Type: biochemical
Details: Table 3; read-out: Zap-1
pIC50: −log10 of the molar value.

{"molecule": "CC(=O)NCc1ccc(Nc2ncnc(Nc3cc(-c4ccco4)n[nH]3)n2)cc1 [Compound 443]", "value observed": "< 4.94"}
{"molecule": "COc1cc(Nc2ncnc(Nc3ccc4c(c3)Cc3ccccc3-4)n2)cc(OC)c1OC [Compound 95]", "value observed": "4.99 to 5.10"}
{"molecule": "COc1cc(Nc2ncnc(Nc3ccc(Oc4ccccc4)cc3)n2)cc(OC)c1OC [Compound 29]", "value observed": "< 5.00"}
{"molecule": "COc1ccccc1Nc1ncnc(-n2cccc2)n1 [Compound 279]", "value observed": "< 4.77"}
{"molecule": "COc1cc(Nc2ncnc(-n3cc(C#N)c4ccccc43)n2)cc(OC)c1OC [Compound 332]", "value observed": "< 4.95"}

Asked: // fetch pIC50; item: COc1ccc(Nc2ccc(Nc3ncnc(Nc4cc(OC)c(OC)c(OC)c4)n3)cc2)cc1 [Compound 922] ; system: Zap-70 (Homo sapiens)
Given back: 5.13 to 5.30

Asked: Report pIC50 on Zap-70 (Homo sapiens) for this entry: COC(=O)c1sccc1Nc1ncnc(Nc2cc(OC)c(OC)c(OC)c2)n1 [Compound 315]
Given back: 4.97 to 5.08

Asked: Provide pIC50, system Zap-70 (Homo sapiens), entry CCOc1ccc(Nc2ncnc(Nc3ccc(OCc4ccccc4)cc3)n2)cc1OCC [Compound 170]
Given back: 5.12 to 5.28

Asked: State pIC50 on Zap-70 (Homo sapiens). Entry: COc1ccc(Nc2ncnc(Nc3ccc4[nH]ccc4c3)n2)cc1OC [Compound 115]
Given back: < 4.91

----------
Recorded pIC50 for the following compounds
Molecular target: Itk (Homo sapiens, UniProt Q08881)
Construct: Kinases are expressed as either kinase domains or full length constructs; made in house
Sequence (Q08881 whole entry, species assumed, the tested form may be a part): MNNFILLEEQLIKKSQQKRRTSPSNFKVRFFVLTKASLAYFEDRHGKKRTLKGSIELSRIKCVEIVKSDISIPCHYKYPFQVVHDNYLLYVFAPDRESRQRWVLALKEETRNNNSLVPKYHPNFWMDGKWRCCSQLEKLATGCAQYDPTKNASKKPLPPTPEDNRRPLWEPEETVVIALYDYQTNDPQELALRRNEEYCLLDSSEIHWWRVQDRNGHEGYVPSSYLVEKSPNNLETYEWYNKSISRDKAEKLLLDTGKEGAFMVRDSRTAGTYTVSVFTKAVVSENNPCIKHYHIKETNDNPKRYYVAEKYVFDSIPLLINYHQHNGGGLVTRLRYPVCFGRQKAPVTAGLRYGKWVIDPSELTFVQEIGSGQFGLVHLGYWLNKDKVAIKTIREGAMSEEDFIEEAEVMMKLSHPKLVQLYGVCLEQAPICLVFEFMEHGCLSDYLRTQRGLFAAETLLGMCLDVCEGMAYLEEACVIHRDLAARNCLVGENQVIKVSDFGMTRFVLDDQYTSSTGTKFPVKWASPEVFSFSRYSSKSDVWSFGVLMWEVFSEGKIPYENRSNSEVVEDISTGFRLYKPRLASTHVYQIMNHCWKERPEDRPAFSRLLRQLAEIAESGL
Experiment: Kinase inhibition assay (33P transfer), Itk
Type: biochemical
Conditions: read-out: Itk-1
pIC50: −log10 of the molar value.

Some entries whose results are on file:
{"compound": "Cc1ccc2c(c1)CCCN2c1ncnc(Nc2ccc3ncsc3c2)n1", "pIC50": "5.19 to 5.97"}
{"compound": "O=c1[nH]c2ccccc2n1-c1ncnc(Nc2cnc3ccccc3c2)n1", "pIC50": "5.01 to 5.17"}
{"compound": "COc1cc(Nc2ncnc(-n3c(NCCc4cccnc4)nc4ccccc43)n2)cc(OC)c1OC", "pIC50": "5.15 to 5.32"}
{"compound": "COc1ccc(Nc2ncnc(N(C)c3cccc(Cl)c3)n2)cc1OC", "pIC50": "< 4.92"}
{"compound": "COc1cc(Nc2ncnc(Nc3ccc(C(C)=O)cc3)n2)cc(OC)c1OC", "pIC50": "5.22 to 5.99"}
{"compound": "COc1cc(Nc2ncnc(Nc3nc4ccccc4s3)n2)cc(OC)c1OC", "pIC50": "< 4.96"}
{"compound": "COc1cc(Nc2ncnc(-n3c(NCc4ccc(OC(F)(F)F)cc4)nc4ccccc43)n2)cc(OC)c1OC", "pIC50": "< 5.10"}
{"compound": "COc1cc(Nc2ncnc(-n3c(NC(C)c4ccc(F)cc4)nc4ccccc43)n2)cc(OC)c1OC (centres unmarked)", "pIC50": "< 5.06"}

Asked: Look up pIC50 of CN1CCN(Cc2cccc(Nc3ncnc(Nc4cccc5ccccc45)n3)c2)CC1 and report it.
Given back: < 4.98

Asked: Query pIC50 for Nc1nc2ccccc2n1-c1ncnc(Nc2ccc(S(N)(=O)=O)cc2)n1
Given back: 5.20 to 5.98

Asked: Give the reported value of pIC50 for this record: CCc1ccc(Nc2nc3ccccc3n2-c2ncnc(Nc3cc(OC)c(OC)c(OC)c3)n2)cc1
Given back: < 5.04

Asked: Output pIC50 of COc1cc(Nc2ncnc(-n3c(NCc4cccc(C)c4)nc4ccccc43)n2)cc(OC)c1OC
Given back: < 5.04

Asked: # return recorded pIC50 for input COc1cc(Nc2ncnc(Nc3ccc4c(c3)CCC4)n2)cc(OC)c1OC
Given back: 5.21 to 5.99

Asked: Tell me pIC50 reported for CN(c1cccc(Cl)c1)c1ncnc(Nc2ncccn2)n1
Given back: < 4.84

----------
Target: EGFR (Homo sapiens, UniProt P00533)
Construct: Kinases are expressed as either kinase domains or full length constructs; made in house
Sequence (P00533 25-1210, species assumed): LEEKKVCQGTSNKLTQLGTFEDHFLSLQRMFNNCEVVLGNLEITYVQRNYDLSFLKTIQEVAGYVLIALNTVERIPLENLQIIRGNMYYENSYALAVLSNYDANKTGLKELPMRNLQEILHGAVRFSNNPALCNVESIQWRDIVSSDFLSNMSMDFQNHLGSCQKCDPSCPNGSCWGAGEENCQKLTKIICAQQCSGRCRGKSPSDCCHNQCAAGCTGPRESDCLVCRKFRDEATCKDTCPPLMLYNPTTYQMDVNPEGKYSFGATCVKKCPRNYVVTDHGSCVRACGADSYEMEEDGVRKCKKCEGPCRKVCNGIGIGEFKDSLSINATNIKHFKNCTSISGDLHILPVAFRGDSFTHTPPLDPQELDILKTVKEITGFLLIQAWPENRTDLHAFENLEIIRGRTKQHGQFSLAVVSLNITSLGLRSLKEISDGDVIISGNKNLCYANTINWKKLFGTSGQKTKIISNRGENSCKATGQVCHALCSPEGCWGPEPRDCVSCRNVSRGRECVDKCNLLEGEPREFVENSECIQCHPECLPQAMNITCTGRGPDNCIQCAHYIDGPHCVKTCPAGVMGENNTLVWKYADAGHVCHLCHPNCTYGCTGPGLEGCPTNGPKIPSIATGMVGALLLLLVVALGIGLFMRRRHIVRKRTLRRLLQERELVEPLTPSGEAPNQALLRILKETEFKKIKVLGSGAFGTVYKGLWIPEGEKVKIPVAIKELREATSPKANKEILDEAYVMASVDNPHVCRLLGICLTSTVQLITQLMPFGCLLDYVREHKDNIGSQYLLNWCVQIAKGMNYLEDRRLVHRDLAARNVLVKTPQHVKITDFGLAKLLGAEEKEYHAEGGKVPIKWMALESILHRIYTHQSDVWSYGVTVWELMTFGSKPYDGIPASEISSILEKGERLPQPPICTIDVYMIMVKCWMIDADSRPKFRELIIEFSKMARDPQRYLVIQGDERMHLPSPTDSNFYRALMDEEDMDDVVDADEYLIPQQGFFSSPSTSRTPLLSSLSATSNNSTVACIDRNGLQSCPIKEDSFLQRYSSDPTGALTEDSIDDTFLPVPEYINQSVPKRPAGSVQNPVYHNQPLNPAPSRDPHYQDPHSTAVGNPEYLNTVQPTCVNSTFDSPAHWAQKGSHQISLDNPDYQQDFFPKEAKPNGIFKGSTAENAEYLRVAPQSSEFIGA
Test: Kinase inhibition assay (33P transfer), EGFR
Assay type: biochemical
Conditions: Table 2, kinase inhibition class; read-out: EGFR-1
Recorded IC50 for the following molecules

# annotated cases, reported IC50 shown
{"smiles code": "COc1cc(Nc2ncnc(Nc3ccccc3C)n2)cc(OC)c1OC", "target under test": "EGFR (Homo sapiens, UniProt P00533)", "value observed": "6.53 to 9.53 µM"}
{"smiles code": "Cc1ccc2c(c1)CCCN2c1ncnc(NCCN2CCOCC2)n1", "target under test": "EGFR (Homo sapiens, UniProt P00533)", "value observed": "> 12.7 µM"}
{"smiles code": "COc1cc(Nc2ncnc(N[C@H](CO)c3ccccc3)n2)cc(OC)c1OC", "target under test": "EGFR (Homo sapiens, UniProt P00533)", "value observed": "1.01 to 6.04 µM"}
{"smiles code": "COc1cc(Nc2ncnc(-c3ccc(N(C)C)nc3)n2)cc(OC)c1OC", "target under test": "EGFR (Homo sapiens, UniProt P00533)", "value observed": "> 11.8 µM"}
{"smiles code": "NC(=O)Cc1cccc(Nc2ncnc(-n3c(N)nc4ccccc43)n2)c1", "target under test": "EGFR (Homo sapiens, UniProt P00533)", "value observed": "> 12.5 µM"}
{"smiles code": "COc1cc(Nc2ncnc(Nc3ccc(N4CCOCC4)cc3)n2)cc(OC)c1OC", "target under test": "EGFR (Homo sapiens, UniProt P00533)", "value observed": "> 10.3 µM"}
{"smiles code": "C=CCNC(=O)c1ccc(-c2cc(Nc3ncnc(Nc4cc(OC)c(OC)c(OC)c4)n3)[nH]n2)cc1", "target under test": "EGFR (Homo sapiens, UniProt P00533)", "value observed": "> 8.95 µM"}
{"smiles code": "COc1cc(Nc2ncnc(-n3c(N)nc4ccccc43)n2)ccc1OCCN1CCOCC1", "target under test": "EGFR (Homo sapiens, UniProt P00533)", "value observed": "> 9.73 µM"}

Asked: Print EGFR (Homo sapiens, UniProt P00533) IC50 for COc1cc(Nc2ncnc(Nc3[nH]ncc3-c3cccs3)n2)cc(OC)c1OC .
Given back: > 10.6 µM

Asked: Fill in IC50 for COc1cc(Nc2ncnc(-n3cc(OC(C)=O)c4ccccc43)n2)cc(OC)c1OC tested with EGFR (Homo sapiens, UniProt P00533).
Given back: > 10.3 µM

Asked: Answer briefly: IC50 recorded on EGFR (Homo sapiens, UniProt P00533) for COc1ccc(Nc2ncnc(-n3c(N)nc4ccccc43)n2)cn1
Given back: > 13.5 µM

Asked: Please indicate recorded IC50 of COc1cc(Nc2ncnc(-n3c(Nc4ccc5cn[nH]c5c4)nc4ccccc43)n2)cc(OC)c1OC measured with EGFR (Homo sapiens, UniProt P00533).
Given back: > 8.83 µM

Asked: Fill: IC50 (EGFR (Homo sapiens, UniProt P00533)) for this molecule CCN(c1cccc(C)c1)c1ncnc(Nc2cc(OC)c(OC)c(OC)c2)n1
Given back: < 1.01 µM
